Collected pEC50 values appear next to each entry.
test.system: Growth hormone secretagogue receptor type 1 (Homo sapiens)
method.summary: Agonist activity at human GHS1a receptor expressed in CHO cells assessed as accumulation of intracellular calcium level
pEC50: −log10 of the molar value.
property.name: pEC50

> print(dat)
                     structure.smiles.string                               test.system  recorded.measurement
 1  COc1ccc(Cn2c(CCc3c[nH]c4ccccc34)nnc2[C@@H](Cc2c[nH]c3ccccc23)NC(=O)C2CCNCC2)cc1  Growth hormone secretagogue receptor type 1 (Homo sapiens)                  8.52
 2  COc1ccc(Cn2c(CCc3c[nH]c4ccccc34)nnc2[C@@H](Cc2c[nH]c3ccccc23)NC(=O)C2CCNCC2)c(OC)c1  Growth hormone secretagogue receptor type 1 (Homo sapiens)                  9.22
 3  CCc1ccc(Cn2c(CCc3ccccc3)nnc2[C@@H](Cc2c[nH]c3ccccc23)NC(=O)C2CCNCC2)cc1  Growth hormone secretagogue receptor type 1 (Homo sapiens)                  8.11
 4  O=C(N[C@H](Cc1c[nH]c2ccccc12)c1nnc(CCc2c[nH]c3ccccc23)n1Cc1ccccc1)[C@H]1CCCNC1  Growth hormone secretagogue receptor type 1 (Homo sapiens)                  8.00
 5  COc1ccc(Cn2c(CCc3ccccc3)nnc2[C@@H](Cc2c[nH]c3ccccc23)NCCN)c(OC)c1  Growth hormone secretagogue receptor type 1 (Homo sapiens)                  6.55
 6  CCc1ccc(-n2c(CCc3c[nH]c4ccccc34)nnc2[C@@H](Cc2c[nH]c3ccccc23)NC(=O)C2CCNCC2)cc1  Growth hormone secretagogue receptor type 1 (Homo sapiens)                  7.82
 7  O=C(N[C@H](Cc1c[nH]c2ccccc12)c1nnc(CCc2c[nH]c3ccccc23)n1Cc1ccccc1)C1CCNCC1  Growth hormone secretagogue receptor type 1 (Homo sapiens)                  8.27
 8  O=C(N[C@H](Cc1c[nH]c2ccccc12)c1nnc(CCc2c[nH]c3ccccc23)n1-c1ccccc1)C1CCNCC1  Growth hormone secretagogue receptor type 1 (Homo sapiens)                  8.64
 9  COc1ccc(Cn2c(CCc3ccccc3)nnc2[C@@H](Cc2c[nH]c3ccccc23)NC(=O)[C@@H]2CCCNC2)cc1  Growth hormone secretagogue receptor type 1 (Homo sapiens)                  7.44
10  COc1ccc(Cn2c(CCc3c[nH]c4ccccc34)nnc2[C@@H](Cc2c[nH]c3ccccc23)NC(=O)[C@H]2CCCNC2)cc1  Growth hormone secretagogue receptor type 1 (Homo sapiens)                  8.60
11  COc1ccc(Cn2c(CCc3c[nH]c4ccccc34)nnc2[C@@H](Cc2c[nH]c3ccccc23)NC(=O)[C@H]2CCCNC2)c(OC)c1  Growth hormone secretagogue receptor type 1 (Homo sapiens)                  8.28

###

test.system: Growth hormone secretagogue receptor type 1 (Homo sapiens, UniProt Q92847)
Sequence (Q92847 whole entry): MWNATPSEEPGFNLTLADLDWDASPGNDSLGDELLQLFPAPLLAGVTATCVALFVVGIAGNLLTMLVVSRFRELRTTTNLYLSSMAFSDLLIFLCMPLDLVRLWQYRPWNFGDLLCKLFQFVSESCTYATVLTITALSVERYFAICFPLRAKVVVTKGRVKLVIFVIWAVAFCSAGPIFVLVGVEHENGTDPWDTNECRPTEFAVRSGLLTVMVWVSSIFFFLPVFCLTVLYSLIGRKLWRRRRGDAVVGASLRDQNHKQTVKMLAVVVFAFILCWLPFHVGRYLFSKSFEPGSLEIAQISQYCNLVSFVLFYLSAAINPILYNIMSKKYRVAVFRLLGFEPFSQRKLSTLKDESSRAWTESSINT
method.summary: Activity at human GHS1a receptor expressed in CHO cells assessed as accumulation of intracellular calcium level at 10 uM relative to ghrelin
Type: functional, cell-based
Collected Activity values appear next to each entry.
property.name: Activity (%)

> print(dat)
                                   compound  measure.unit  recorded.measurement
1  COc1ccc(Cn2c(CCc3ccccc3)nnc2[C@@H](Cc2c[nH]c3ccccc23)NCCN)c(OC)c1             %                    59
2  COc1ccc(Cn2c(CCc3ccccc3)nnc2[C@@H](Cc2c[nH]c3ccccc23)NC(=O)C2CCCCN2)cc1 (single isomer, unassigned)             %                     3
3  COc1ccc(Cn2c(CCc3c[nH]c4ccccc34)nnc2[C@@H](Cc2c[nH]c3ccccc23)NC(=O)C2CCNCC2)c(OC)c1             %                    77
4  CCc1ccc(-n2c(CCc3c[nH]c4ccccc34)nnc2[C@@H](Cc2c[nH]c3ccccc23)NC(=O)[C@@H]2CCCN2)cc1             %                     5

###

test.system: Growth hormone secretagogue receptor type 1 (Homo sapiens)
method.summary: Activity at human GHS1a receptor expressed in CHO cells assessed as accumulation of intracellular calcium level at 10 uM relative to ghrelin
Type: functional, cell-based
property.name: Activity (%)

> print(dat)
                    structure.smiles.string  property.name  recorded.measurement
1  CCc1ccc(-n2c(CCc3c[nH]c4ccccc34)nnc2[C@@H](Cc2c[nH]c3ccccc23)NC(=O)C2CCNCC2)cc1       Activity                   100
2  COc1ccc(Cn2c(CCc3c[nH]c4ccccc34)nnc2[C@@H](Cc2c[nH]c3ccccc23)NC(=O)[C@H]2CCCCN2)cc1       Activity                     0
3  CCc1ccc(-n2c(CCc3c[nH]c4ccccc34)nnc2[C@@H](Cc2c[nH]c3ccccc23)NC(=O)CN)cc1       Activity                     4
4  COc1ccc(Cn2c(CCc3c[nH]c4ccccc34)nnc2[C@@H](Cc2c[nH]c3ccccc23)NC(=O)C(C)(C)N)cc1       Activity                     9

###

test.system: Growth hormone secretagogue receptor type 1 (Homo sapiens)
method.summary: Activity at human GHS1a receptor expressed in CHO cells assessed as accumulation of intracellular calcium level at 10 uM relative to ghrelin
Format: functional, cell-based
Field: label. Allowed values: Met (Activity < 2%) or Not met (Activity >= 2%).

> print(dat)
                    structure.smiles.string  classification
1  COc1ccc(Cn2c(CCc3c[nH]c4ccccc34)nnc2[C@@H](Cc2c[nH]c3ccccc23)NC(=O)[C@@H]2CCCN2)c(OC)c1             Met
2  COc1ccc(-n2c(CCc3ccccc3)nnc2[C@@H](Cc2c[nH]c3ccccc23)NC(=O)CN)c(OC)c1         Not met
3  O=C(N[C@H](Cc1c[nH]c2ccccc12)c1nnc(CCc2c[nH]c3ccccc23)n1Cc1ccccc1)C1CCNCC1         Not met
4  COc1ccc(Cn2c(CCc3ccccc3)nnc2[C@@H](Cc2c[nH]c3ccccc23)NC(=O)CN)c(OC)c1             Met
5  COc1ccc(Cn2c(CCc3c[nH]c4ccccc34)nnc2[C@@H](Cc2c[nH]c3ccccc23)NC(=O)C2CCNCC2)cc1         Not met

###

test.system: Growth hormone secretagogue receptor type 1 (Homo sapiens)
method.summary: Activity at human GHS1a receptor expressed in CHO cells assessed as accumulation of intracellular calcium level at 10 uM relative to ghrelin
Assay type: functional, cell-based
Collected Activity values appear next to each entry.
property.name: Activity (%)

> print(dat)
                    structure.smiles.string  property.name  recorded.measurement
1  COc1ccc(Cn2c(CCc3ccccc3)nnc2[C@@H](Cc2c[nH]c3ccccc23)NC(=O)[C@@H]2C[C@@H](O)CN2)cc1       Activity                    87
2  COc1ccc(Cn2c(CCc3ccccc3)nnc2[C@@H](Cc2c[nH]c3ccccc23)NC(=O)[C@@H]2CCCCN2)c(OC)c1       Activity                     0
3  COc1ccc(Cn2c(CCc3c[nH]c4ccccc34)nnc2[C@@H](Cc2c[nH]c3ccccc23)NC(=O)[C@H]2CCCNC2)cc1       Activity                   111
4  O=C(N[C@H](Cc1c[nH]c2ccccc12)c1nnc(CCc2c[nH]c3ccccc23)n1-c1ccccc1)C1CCNCC1       Activity                   100
5  NCC(=O)N[C@H](Cc1c[nH]c2ccccc12)c1nnc(CCc2ccccc2)n1-c1ccccc1       Activity                     7
6  COc1ccc(Cn2c(CCc3c[nH]c4ccccc34)nnc2[C@@H](Cc2c[nH]c3ccccc23)NC(=O)[C@H]2CCCNC2)c(OC)c1       Activity                    48
7  CCc1ccc(Cn2c(CCc3ccccc3)nnc2[C@@H](Cc2c[nH]c3ccccc23)NC(=O)[C@H]2CCCNC2)cc1       Activity                    11

// data source = ChEMBL document CHEMBL1137611
